Record form. Attribute: koff. Fill in for each entry.
# subjectOfTest: T1, TP-51 peptide (human)
# T1 construct: Synthetic peptide from Pepscan; also called synthetic TDP-43 peptide (TP-51)
# T1 peptide: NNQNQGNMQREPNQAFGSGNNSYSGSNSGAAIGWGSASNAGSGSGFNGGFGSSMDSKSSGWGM
# assayDetails: SPR Biacore 8K, mAb captured by anti-human antibody, TP-51 injected, single-cycle kinetics
Numbers only, in s⁻¹.

INSERT INTO results (binder, experimentalreadout, measuredresult) VALUES
  ('hACI-7069-633B12-Ab1_H28L23 (antibody, V domains shown) VH: EVQLVQSGAEVKKPGATVKISCKVSGFTFTEYSMHWVQQAPGKGLEWMGGINPNNGGTSYNQKFKGRVTITADTSTDTAYMELSSLRSEDTAVYYCARESWGQGTTVTVSS VL: DVVMTQSPLSLPVTPGEPASISCKSSQSLLHSDGKTYLNWLLQKPGQSPQRLIYLVSKLDSRVPDRFSGSGSGTDFTLKISRVEAEDVGVYYCWQGTHFPHTFGQGTKLEIK', 'koff', 0.00013),
  ('hACI-7069-633B12-Ab1_H33L26 (antibody, V domains shown) VH: EVQLVQSGAEVKKPGATVKISCKVSGFTFTEYSMHWVQQAPGKGLEWMGGINPNNGGTSYNQKFQGRVTITADTSTDTAYMELSSLRSEDTAVYYCARESWGQGTTVTVSS VL: DIVMTQSPLSLPVTPGEPASISCKSSQSLLHSDAKTYLNWLLQKPGQSPQRLIYLVSKLDSRVPDRFSGSGSGTDFTLKISRVEAEDVGVYYCFQGTHFPHTFGQGTKLEIK', 'koff', 0.00029),
  ('hACI-7069-633B12-Ab1_H27L23 (antibody, V domains shown) VH: EVQLVQSGAEVKKPGATVKISCKVSGFTFTEYSMHWVQQAPGKGLEWMGGINPNNGGTSYNQKFKGRVTITVDTSTDTAYMELSSLRSEDTAVYYCARESWGQGTTVTVSS VL: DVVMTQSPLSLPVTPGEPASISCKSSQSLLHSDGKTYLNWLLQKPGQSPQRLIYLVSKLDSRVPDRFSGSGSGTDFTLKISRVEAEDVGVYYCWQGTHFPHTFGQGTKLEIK', 'koff', 0.00014),
  ('hACI-7069-633B12-Ab1_H33L24 (antibody, V domains shown) VH: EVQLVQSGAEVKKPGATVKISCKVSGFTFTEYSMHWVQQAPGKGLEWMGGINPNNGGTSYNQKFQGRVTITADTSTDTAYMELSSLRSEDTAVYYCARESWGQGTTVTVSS VL: DIVMTQSPLSLPVTPGEPASISCKSSQSLLHSDGKTYLNWLLQKPGQSPQRLIYLVSKLDSRVPDRFSGSGSGTDFTLKISRVEAEDVGVYYCWQGTHFPHTFGQGTKLEIK', 'koff', 0.00015);

We now examine a further binder.
Asked: Form field: reported koff of hACI-7069-633B12-Ab1_H32L24 (antibody, V domains shown) VH: EVQLVQSGAEVKKPGATVKISCKVSGFTFTEYSMHWVQQAPGKGLEWMGGINPQNAGTSYNQKFQGRVTITADTSTDTAYMELSSLRSEDTAVYYCARESWGQGTTVTVSS VL: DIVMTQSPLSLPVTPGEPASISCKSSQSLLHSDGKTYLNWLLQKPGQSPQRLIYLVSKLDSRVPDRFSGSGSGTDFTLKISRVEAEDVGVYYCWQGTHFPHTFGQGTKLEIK
Given back: 0.00012
